Each entry below carries its reported self-cleavage kobs at 40 uM GlcN6P.
B1: glmS ribozyme (parent)
chain: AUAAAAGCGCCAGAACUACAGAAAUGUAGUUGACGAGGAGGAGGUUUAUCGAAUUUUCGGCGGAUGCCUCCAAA

Variants of: B1
Assay: self-cleavage kobs at 40 uM GlcN6P; higher = faster cleavage; RNA array
Conditions: with glucosamine-6-phosphate
This sample holds only a part of the variants without activity.

For this variant ( G43C C68G ), measured self-cleavage kobs at 40 uM GlcN6P is 0.00205 s⁻¹

For this variant ( G13U U45G ), measured self-cleavage kobs at 40 uM GlcN6P is < 1e-05 s⁻¹

For this variant ( G40C C61U ), measured self-cleavage kobs at 40 uM GlcN6P is < 1e-05 s⁻¹

For this variant ( A15U A39C G41C ), measured self-cleavage kobs at 40 uM GlcN6P is < 1e-05 s⁻¹

For this variant ( C16U G41U A53U ), measured self-cleavage kobs at 40 uM GlcN6P is 3.27e-05 s⁻¹

For this variant ( G44A A48G ), measured self-cleavage kobs at 40 uM GlcN6P is < 1e-05 s⁻¹

Entry source: the supplement of paper PMC7125110
